tested target: Acetylcholinesterase (Rattus norvegicus, UniProt P37136)
Sequence (P37136 whole entry): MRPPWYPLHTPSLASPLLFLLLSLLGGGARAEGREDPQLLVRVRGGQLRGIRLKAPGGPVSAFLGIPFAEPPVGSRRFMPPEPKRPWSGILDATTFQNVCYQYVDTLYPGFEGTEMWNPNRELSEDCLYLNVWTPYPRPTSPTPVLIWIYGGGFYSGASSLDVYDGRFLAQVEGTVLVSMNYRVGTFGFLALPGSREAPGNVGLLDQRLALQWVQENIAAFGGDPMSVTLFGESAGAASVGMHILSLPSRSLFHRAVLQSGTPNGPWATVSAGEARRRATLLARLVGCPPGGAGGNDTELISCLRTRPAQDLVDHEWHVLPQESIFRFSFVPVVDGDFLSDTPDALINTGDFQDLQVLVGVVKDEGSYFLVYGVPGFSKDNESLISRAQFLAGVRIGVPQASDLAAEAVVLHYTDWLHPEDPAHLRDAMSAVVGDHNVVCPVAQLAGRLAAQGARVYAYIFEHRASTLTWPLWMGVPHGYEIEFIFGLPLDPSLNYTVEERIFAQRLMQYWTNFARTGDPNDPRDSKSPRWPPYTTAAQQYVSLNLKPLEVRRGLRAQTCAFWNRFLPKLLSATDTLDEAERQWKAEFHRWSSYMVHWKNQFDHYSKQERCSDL
pIC50: −log10 of the molar value.

# compound, relation sign, pIC50
records = [
    ("CN(CCOCC/N=C(\\S)Nc1cccnc1)Cc1ccccc1", "=", 5.40),
    ("CN(CCOCCNC(=S)NC(=O)C1=CC2C(=O)c3ccccc3C(=O)C2C=C1)Cc1ccccc1 (stereo unspecified)", "=", 8.22),
    ("Cc1ccc(C(=O)NC(=S)NCCOCCN(C)Cc2ccccc2)cc1", "=", 7.11),
    ("CN(CCOCCNC(=S)Nc1cccc2ccccc12)Cc1ccccc1", "<", 5.00),
    ("COc1ccc(NC(=S)NCCOCCN(C)Cc2cccc([N+](=O)[O-])c2)cc1OC", "=", 5.82),
    ("CN(CCOCCNC(=S)NC(=O)c1ccc(-c2ccccc2)cc1)Cc1ccccc1", "=", 6.64),
]

* * *

tested target: Acetylcholinesterase (Rattus norvegicus, UniProt P37136)
Sequence (P37136 whole entry): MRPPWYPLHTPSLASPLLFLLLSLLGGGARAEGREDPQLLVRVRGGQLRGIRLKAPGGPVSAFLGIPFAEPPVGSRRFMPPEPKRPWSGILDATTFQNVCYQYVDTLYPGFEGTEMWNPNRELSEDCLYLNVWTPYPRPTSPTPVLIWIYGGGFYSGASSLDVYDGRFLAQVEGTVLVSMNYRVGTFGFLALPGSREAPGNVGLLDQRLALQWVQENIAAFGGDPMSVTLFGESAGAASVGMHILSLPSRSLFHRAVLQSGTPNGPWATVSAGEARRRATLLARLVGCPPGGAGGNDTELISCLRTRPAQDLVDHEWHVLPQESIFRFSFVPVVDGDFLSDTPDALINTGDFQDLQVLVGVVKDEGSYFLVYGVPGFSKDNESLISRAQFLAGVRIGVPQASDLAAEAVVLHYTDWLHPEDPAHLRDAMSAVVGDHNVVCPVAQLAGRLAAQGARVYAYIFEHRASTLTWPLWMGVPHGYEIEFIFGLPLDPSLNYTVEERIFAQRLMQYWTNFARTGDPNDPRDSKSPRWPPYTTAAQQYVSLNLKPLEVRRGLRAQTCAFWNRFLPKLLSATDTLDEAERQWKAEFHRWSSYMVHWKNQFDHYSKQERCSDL
pIC50: −log10 of the molar value.
Is pIC50 at least 7? Then condition met. If not, condition not met.

# compound string, discrete label
records = [
    ("CN(CCOCCNC(=S)NC(=O)c1ccc(Cl)c(Cl)c1)Cc1ccccc1", "condition met"),
    ("CN(CCOCCNC(=S)NC1CCCCC1)Cc1ccccc1", "condition not met"),
    ("CN(CCOCCCNC(=S)NC(=O)c1ccccc1)Cc1ccccc1", "condition not met"),
    ("CN(CCOCCNC(S)=NC(=O)c1cccc([N+](=O)[O-])c1)Cc1ccccc1", "condition met"),
    ("CN(CCOCCNC(=O)Nc1ccc([N+](=O)[O-])cc1)Cc1ccccc1", "condition not met"),
    ("CN(CCOCCNC(=S)NC(=O)c1ccc2c(c1)-c1ccccc1C2=O)Cc1ccccc1", "condition met"),
    ("COc1ccc(C(=O)NC(=S)NCCOCCN(C)Cc2ccccc2)cc1", "condition met"),
    ("CCN(CCOCCNC(=O)NCc1ccccc1)CC1CCCCC1", "condition not met"),
    ("CN(CCOCCNC(=S)NC(=O)c1ccccc1)C1CCCCC1", "condition met"),
    ("CN(CCOCCNC(=S)Nc1ccc(OC(F)(F)F)cc1)Cc1ccccc1", "condition not met"),
]
